The reported numbers originate from paper PMC4519192.

target: Protein A, recombinant (Sigma P7837) (UniProt P38507 37-327); test: MST; 25 C, in solution; details: protein: recombinant; label: 5'-fluorescein
ENDPOINT_NAME: Kd (nM)
Answers are plain numbers, in nM.

Consider the binder PA#2/8 5'-fluorescein (structured_DNA) DNA: ATACCAGCTTATTCAATTAGCAACATGAGGGGGATAGAGGGGGTGGGTTCTCTCGGCTACAATCGTAATCAGTTAG and give its measured Kd.
927
